- system: T1, rat collagen, acid soluble, type I, rat tail (Upstate 08-115) (rat, UniProt P02454 152-1207; P02466 86-1125)
- T1 construct: tissue extract, gelled and dried in wells; also called dried rat collagen
- T1 sequence (P02454 152-1207, chain 1 of 2): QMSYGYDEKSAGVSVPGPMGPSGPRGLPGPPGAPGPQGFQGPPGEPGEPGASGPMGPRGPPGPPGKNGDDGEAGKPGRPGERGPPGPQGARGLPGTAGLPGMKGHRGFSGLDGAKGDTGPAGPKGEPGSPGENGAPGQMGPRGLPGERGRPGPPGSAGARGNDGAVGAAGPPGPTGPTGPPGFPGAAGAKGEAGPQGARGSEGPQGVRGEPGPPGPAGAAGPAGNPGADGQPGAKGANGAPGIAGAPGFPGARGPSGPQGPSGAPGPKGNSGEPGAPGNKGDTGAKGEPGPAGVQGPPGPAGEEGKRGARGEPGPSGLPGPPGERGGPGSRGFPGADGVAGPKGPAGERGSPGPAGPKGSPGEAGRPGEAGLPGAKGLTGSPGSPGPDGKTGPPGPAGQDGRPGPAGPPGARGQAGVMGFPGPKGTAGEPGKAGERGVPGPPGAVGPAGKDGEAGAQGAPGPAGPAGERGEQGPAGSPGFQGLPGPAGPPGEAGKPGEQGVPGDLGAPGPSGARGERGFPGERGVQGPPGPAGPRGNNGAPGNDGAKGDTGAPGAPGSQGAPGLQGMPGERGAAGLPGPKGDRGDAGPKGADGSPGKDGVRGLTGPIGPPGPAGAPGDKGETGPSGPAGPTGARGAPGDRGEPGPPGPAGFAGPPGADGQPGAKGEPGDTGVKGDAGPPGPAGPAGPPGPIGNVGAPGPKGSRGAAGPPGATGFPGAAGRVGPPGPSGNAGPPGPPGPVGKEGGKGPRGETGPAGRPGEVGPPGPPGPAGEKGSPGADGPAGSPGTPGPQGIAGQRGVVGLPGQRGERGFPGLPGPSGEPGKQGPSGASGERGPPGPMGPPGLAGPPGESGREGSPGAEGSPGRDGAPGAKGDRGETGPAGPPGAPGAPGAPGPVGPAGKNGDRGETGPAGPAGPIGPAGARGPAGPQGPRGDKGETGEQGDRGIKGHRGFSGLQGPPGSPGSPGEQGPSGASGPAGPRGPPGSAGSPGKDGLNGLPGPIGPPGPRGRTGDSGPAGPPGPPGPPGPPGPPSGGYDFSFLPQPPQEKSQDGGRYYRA
- T1 sequence (P02466 86-1125, chain 2 of 2): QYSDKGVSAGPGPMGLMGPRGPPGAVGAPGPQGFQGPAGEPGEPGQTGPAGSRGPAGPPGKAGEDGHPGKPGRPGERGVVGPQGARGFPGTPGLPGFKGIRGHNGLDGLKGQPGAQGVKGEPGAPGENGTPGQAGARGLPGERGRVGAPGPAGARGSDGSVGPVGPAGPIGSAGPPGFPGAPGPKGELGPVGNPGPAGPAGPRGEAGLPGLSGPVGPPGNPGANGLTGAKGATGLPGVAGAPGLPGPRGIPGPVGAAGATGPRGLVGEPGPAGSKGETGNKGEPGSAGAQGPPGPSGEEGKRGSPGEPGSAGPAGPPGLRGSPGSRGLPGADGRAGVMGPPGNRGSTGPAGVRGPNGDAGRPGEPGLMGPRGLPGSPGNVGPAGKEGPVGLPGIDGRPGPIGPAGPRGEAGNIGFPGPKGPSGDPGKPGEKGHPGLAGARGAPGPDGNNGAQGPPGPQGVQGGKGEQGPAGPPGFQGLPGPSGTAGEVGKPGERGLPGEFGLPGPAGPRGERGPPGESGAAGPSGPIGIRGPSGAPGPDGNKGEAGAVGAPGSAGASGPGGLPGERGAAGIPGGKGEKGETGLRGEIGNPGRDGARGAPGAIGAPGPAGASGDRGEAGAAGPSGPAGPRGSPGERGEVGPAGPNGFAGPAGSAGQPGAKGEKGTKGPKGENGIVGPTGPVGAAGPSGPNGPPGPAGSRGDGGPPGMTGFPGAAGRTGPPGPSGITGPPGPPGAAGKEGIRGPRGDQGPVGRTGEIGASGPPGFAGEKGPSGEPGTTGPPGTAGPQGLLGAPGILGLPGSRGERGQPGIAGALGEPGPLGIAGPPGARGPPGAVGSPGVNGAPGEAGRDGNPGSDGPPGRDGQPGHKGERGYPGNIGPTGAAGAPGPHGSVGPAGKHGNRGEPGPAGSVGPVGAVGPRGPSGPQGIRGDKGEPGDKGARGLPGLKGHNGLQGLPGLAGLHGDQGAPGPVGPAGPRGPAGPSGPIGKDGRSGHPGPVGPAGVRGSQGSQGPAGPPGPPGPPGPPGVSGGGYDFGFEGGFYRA
- assay_summary: dried collagen assay
Bridge positions count the residues as written; N and C are the ends. Square brackets hold non-standard residues; d marks the D form. Ends that are not written are not given here. NMeA = CN[C@@H](C)C(=O)O; Sar = CNCC(=O)O
// assign label 1 if % bound falls strictly below 40%, else label 0 (ties count as label 0)

• GQWACSGDEYTWHCNYE (disulfide 5-14 (inferred), cyclic, disulfide) [SEQ ID NO 140] = label 0
• DWTCSGDHLTWHCNYG (disulfide 4-13 (inferred), cyclic, disulfide) [SEQ ID NO 116] = label 1
• GQWTCSGDAYTWHCAYE (disulfide 5-14 (inferred), cyclic, disulfide) [SEQ ID NO 128] = label 0
• GQATCSGDEYTWHCNYE (disulfide 5-14 (inferred), cyclic, disulfide) [SEQ ID NO 139] = label 1
• Y[dH]ACYQAGCWIW (disulfide 4-9 (inferred); not fully specified (C-terminus); printed as YhACYQAGCWIW, cyclic, disulfide) [SEQ ID NO 153] = label 1
• YH[dA]CYQAGCWIW (disulfide 4-9 (inferred); not fully specified (C-terminus); printed as YHaCYQAGCWIW, cyclic, disulfide) [SEQ ID NO 154] = label 1
• YHACYAAGCWIW (disulfide 4-9 (inferred), cyclic, disulfide) [SEQ ID NO 134] = label 1
• GQWTCSGDEYAWHCNY[dE] (disulfide 5-14 (inferred), cyclic, disulfide) [SEQ ID NO 126] = label 0
• GQWTCSGDEYTWACNYE (disulfide 5-14 (inferred); not fully specified (C-terminus), cyclic, disulfide) [SEQ ID NO 148] = label 0
• YHACYQA[Sar]CWIW (disulfide 4-9 (inferred), cyclic, disulfide) [SEQ ID NO 104] = label 1
• DWTCS[dL]DEYTWHCNYE (disulfide 4-13 (inferred), cyclic, disulfide) [SEQ ID NO 183] = label 0
• AHACYQAGCWIW (disulfide 4-9 (inferred), cyclic, disulfide) [SEQ ID NO 131] = label 1
• YHACYQAGCYIY (disulfide 4-9 (inferred), cyclic, disulfide) [SEQ ID NO 108] = label 1
• GQWTCSGDEYSWHCNY[dE] (disulfide 5-14 (inferred), cyclic, disulfide) [SEQ ID NO 125] = label 0
• YHACYQAGCWI[dW] (disulfide 4-9 (inferred); not fully specified (C-terminus); printed as YHACYQAGCWIw, cyclic, disulfide) [SEQ ID NO 162] = label 1
• QWTCSGDEYTW[dH]CNYE (disulfide 4-13 (inferred); not fully specified (N-terminus); printed as QWTCSGDEYTWhCNYE, cyclic, disulfide) [SEQ ID NO 174] = label 1
• YHACYQ[NMeA]GCWIW (disulfide 4-9 (inferred), cyclic, disulfide; also called YHACYQA'GCWIW) [SEQ ID NO 105] = label 1
• YHACYQAGCWIY (disulfide 4-9 (inferred), cyclic, disulfide) [SEQ ID NO 106] = label 1
• YHACY[dQ]AGCWIW (disulfide 4-9 (inferred); not fully specified (C-terminus); printed as YHACYqAGCWIW, cyclic, disulfide; also called YHACYqAGCWIW) [SEQ ID NO 157] = label 1
• YHACYQAACWIW (disulfide 4-9 (inferred), cyclic, disulfide) [SEQ ID NO 135] = label 0
• YHACYQAGCW[dI]W (disulfide 4-9 (inferred); not fully specified (C-terminus); printed as YHACYQAGCWiW, cyclic, disulfide) [SEQ ID NO 161] = label 1

// data source = patent US20080044360A1
